# TARGET OF ASSAY: NIH/3T3 cells overexpressing FGFR3 WT-TACC3 fusion protein (Homo sapiens, UniProt P22607)
# Construct: NIH/3T3 FGFR3 WT-TACC3 CTG (IC50); other: 72-hr incubation, CellTiter Glo, top concentration 10 μM; fused on or other part: Q9Y6A5 (Transforming acidic coiled-coil-containing protein 3)
# Sequence (P22607 whole entry, change not shown, the tested form may be a part): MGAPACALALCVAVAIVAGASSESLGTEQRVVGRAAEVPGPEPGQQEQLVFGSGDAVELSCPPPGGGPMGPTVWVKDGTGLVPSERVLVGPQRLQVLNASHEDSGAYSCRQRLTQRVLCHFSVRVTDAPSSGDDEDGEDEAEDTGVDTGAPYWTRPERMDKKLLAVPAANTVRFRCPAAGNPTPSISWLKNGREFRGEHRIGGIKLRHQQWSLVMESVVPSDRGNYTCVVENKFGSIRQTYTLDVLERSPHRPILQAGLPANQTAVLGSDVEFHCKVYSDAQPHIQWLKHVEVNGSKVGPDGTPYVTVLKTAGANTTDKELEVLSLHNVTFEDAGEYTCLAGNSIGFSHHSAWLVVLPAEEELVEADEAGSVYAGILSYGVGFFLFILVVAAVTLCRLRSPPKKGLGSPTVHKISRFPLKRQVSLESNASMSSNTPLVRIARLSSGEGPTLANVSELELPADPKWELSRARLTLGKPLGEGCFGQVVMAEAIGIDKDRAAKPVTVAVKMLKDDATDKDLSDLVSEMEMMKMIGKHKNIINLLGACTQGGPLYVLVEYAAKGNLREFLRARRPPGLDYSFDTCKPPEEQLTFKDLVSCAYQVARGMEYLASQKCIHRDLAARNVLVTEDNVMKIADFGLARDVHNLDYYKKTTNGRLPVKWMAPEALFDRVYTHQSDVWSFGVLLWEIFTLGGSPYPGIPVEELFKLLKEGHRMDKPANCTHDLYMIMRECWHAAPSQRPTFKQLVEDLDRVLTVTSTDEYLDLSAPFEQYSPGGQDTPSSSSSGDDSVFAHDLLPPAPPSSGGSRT
# PROTOCOL: NIH/3T3 FGFR3 WT-TACC3 cell proliferation assay (CellTiter Glo)
# Assay type: cell-based
# CONDITION LABEL: 72-hr incubation, top concentration 10 μM, read-out: NIH/3T3 FGFR3 WT-TACC3 CTG (IC50)
PROPERTY NAME: GI50 (nM)

P: Cc1cc2nc(-c3c(N[C@@H](C)c4ncccn4)c4nn(C)cc4[nH]c3=O)[nH]c2cc1C(=O)N1CCCC1
Q: CCn1cc2[nH]c(=O)c(-c3nc4c(F)cc(N5CCOCC5)cc4[nH]3)c(N[C@@H](C)c3ncccn3)c2n1
Looking only at measured GI50, which entry is lower, P or Q ? Selection: enter the item's label. Q
(Q: 13.8 nM, P: 21.3 nM)

A: C[C@H](Nc1c(-c2nc3ccc(N4CCCCC4=O)c(F)c3[nH]2)c(=O)[nH]c2cn(C)nc12)c1ncccn1
B: C[C@H](Nc1c(-c2nc3ccc(N4CCO[C@@H](C(F)(F)F)C4)cc3[nH]2)c(=O)[nH]c2cn(C)nc12)c1ncccn1 (relative stereo)
C: CC(Nc1c(-c2nc3cc(F)c(N4CCOCC4)cc3[nH]2)c(=O)[nH]c2cn(C)nc12)c1ncccn1 (single isomer, unassigned)
D: C[C@@H](Nc1c(-c2nc3ccc(N4CCN(C)CC4)cc3[nH]2)c(=O)[nH]c2cn(C)nc12)c1ncccc1C(F)(F)F (single isomer, unassigned)
Rank the 4 compounds: largest GI50 first, smallest last. Please list the labels in the order you were asked to rank them. D, A, C, B
(D: 195 nM, A: 99.9 nM, C: 17.1 nM, B: 10.5 nM)

a: C[C@H](Nc1c(-c2nc3ccc(N4CCN(C)CC4)cc3[nH]2)c(=O)[nH]c2cn(C)nc12)c1ccccc1
b: CC(Nc1c(-c2nc3ccc(C4CCOCC4)cc3[nH]2)c(=O)[nH]c2cn(C)nc12)c1ncccn1 (single isomer, unassigned)
c: CC(Nc1c(-c2nc3ccc(N4CCOCC4)cc3[nH]2)c(=O)[nH]c2cn(C)nc12)c1cscn1 (single isomer, unassigned) [Compound 42]
d: CC(Nc1c(-c2nc3ccc(OC4CCOCC4)cc3[nH]2)c(=O)[nH]c2cn(C)nc12)c1cocn1 (single isomer, unassigned)
Write the entries in order, lowest recorded GI50 first. Please list the labels in the order you were asked to rank them. c, b, d, a
(c: 8.84 nM, b: 18.1 nM, d: 49.6 nM, a: 74.3 nM)

----------
# Test system: NIH/3T3 cells transfected with control vector
# PROTOCOL: NIH/3T3 mock cell proliferation assay (counter assay, CellTiter Glo)
# Assay type: cell-based
# CONDITION LABEL: Mus musculus, NIH3T3, 72-hr incubation, top concentration 30 μM, counter assay for general toxicity, read-out: NIH/3T3 MOCK CTG (IC50)
PROPERTY NAME: IC50 (µM)
Express the result in µM but write the number alone.

CC(Nc1c(-c2nc3cc(C(F)(F)F)c(N4CCOCC4)cc3[nH]2)c(=O)[nH]c2cn(C)nc12)c1cocn1 (single isomer, unassigned) [Compound 10]	18.4

As a next step, examine the compound that follows.
Per the records, this compound ( CC(Nc1c(-c2nc3ccc(N4C[C@@H](C)O[C@H](C)C4)cc3[nH]2)c(=O)[nH]c2cn(C)nc12)c1ncccn1 (single isomer, unassigned) [Compound 12] ) has IC50 equal to 0.454

----------
# TARGET OF ASSAY: NIH/3T3 cells overexpressing FGFR3 WT-TACC3 fusion protein (Homo sapiens, UniProt P22607)
# Construct: NIH/3T3 FGFR3 WT-TACC3 CTG (IC50); other: 72-hr incubation, CellTiter Glo, top concentration 10 μM; fused on or other part: Q9Y6A5 (Transforming acidic coiled-coil-containing protein 3)
# PROTOCOL: NIH/3T3 FGFR3 WT-TACC3 cell proliferation assay (CellTiter Glo)
# Type: cell-based
# CONDITION LABEL: 72-hr incubation, top concentration 10 μM, read-out: NIH/3T3 FGFR3 WT-TACC3 CTG (IC50)
PROPERTY NAME: GI50 (nM)

CC(Nc1c(-c2nc3ccc(N4CCOCC4)cc3[nH]2)c(=O)[nH]c2cn(C)nc12)c1cscn1 (single isomer, unassigned) [Compound 41]	5.57

P: C[C@H](Nc1c(-c2nc3ccc(N4CCOC(F)(F)C4)cc3[nH]2)c(=O)[nH]c2cn(C)nc12)c1ncccn1 [Compound 25]
Q: COc1cc2nc(-c3c(N[C@@H](C)c4ncccn4)c4nn(C)cc4[nH]c3=O)[nH]c2cc1N1CCOCC1 [Compound 52]
Which record would sort first by descending GI50, P or Q ? Selection: enter the item's label. P
(P: 22.3 nM, Q: 4.11 nM)

P: CC(Nc1c(-c2nc3ccc(N4CCCCC4)c(F)c3[nH]2)c(=O)[nH]c2cn(C)nc12)c1ncccn1 (single isomer, unassigned) [Compound 15]
Q: CCn1cc2[nH]c(=O)c(-c3nc4ccc(N5CCOCC5)cc4[nH]3)c(NC(C)c3cocn3)c2n1 (single isomer, unassigned) [Compound 4A]
Which record would sort first by descending GI50, P or Q ? Selection: enter the item's label. Q

----------
// human FGFR3 wild type enzyme (cytoplasmic domain) (Homo sapiens) pIC50 records
pIC50: −log10 of the molar value.
PROPERTY NAME: pIC50

a: C[C@H](Nc1c(-c2nc3cnc(N4CCOCC4)cc3[nH]2)c(=O)[nH]c2cn(C)nc12)c1cocn1
b: CC(C)C(Nc1c(-c2nc3cnc(N4CCN(C)CC4)cc3[nH]2)c(=O)[nH]c2cn(C)nc12)c1ncccn1 (single isomer, unassigned)
c: C[C@H](Nc1c(-c2nc3ccc(N4CCO[C@@H](C(F)(F)F)C4)cc3[nH]2)c(=O)[nH]c2cn(C)nc12)c1ncccn1 (relative stereo)
d: CC(Nc1c(-c2nc3cc(C(F)(F)F)c(N4CCOCC4)cc3[nH]2)c(=O)[nH]c2cn(C)nc12)c1ncccn1 (racemic)
Give the order of the entries above, sorted from least to greatest pIC50. Please list the labels in the order you were asked to rank them. a, d, b, c
(a: 6.81, d: 8.09, b: 9.01, c: 9.40)

I: C[C@H](Nc1c(-c2nc3ccc(N4CCN(C)CC4)cc3[nH]2)c(=O)[nH]c2cn(C)nc12)c1ncccc1C(F)(F)F (single isomer, unassigned)
II: COc1cc2nc(-c3c(N[C@@H](C)c4ncccn4)c4nn(C)cc4[nH]c3=O)[nH]c2cc1N1CCOCC1
Looking only at measured pIC50, which entry is lower, I or II ? Selection: enter the item's label. I
(I: 6.92, II: 9.15)

----------
# TARGET OF ASSAY: human FGFR3 V555L enzyme (cytoplasmic domain carrying V555L mutation) (Homo sapiens, UniProt P22607, V555L)
# Construct: human FGFR3 V555L enzyme (cytoplasmic domain carrying V555L mutation, from Carna Biosciences)
# Sequence (P22607 397-806 V555L limits assumed): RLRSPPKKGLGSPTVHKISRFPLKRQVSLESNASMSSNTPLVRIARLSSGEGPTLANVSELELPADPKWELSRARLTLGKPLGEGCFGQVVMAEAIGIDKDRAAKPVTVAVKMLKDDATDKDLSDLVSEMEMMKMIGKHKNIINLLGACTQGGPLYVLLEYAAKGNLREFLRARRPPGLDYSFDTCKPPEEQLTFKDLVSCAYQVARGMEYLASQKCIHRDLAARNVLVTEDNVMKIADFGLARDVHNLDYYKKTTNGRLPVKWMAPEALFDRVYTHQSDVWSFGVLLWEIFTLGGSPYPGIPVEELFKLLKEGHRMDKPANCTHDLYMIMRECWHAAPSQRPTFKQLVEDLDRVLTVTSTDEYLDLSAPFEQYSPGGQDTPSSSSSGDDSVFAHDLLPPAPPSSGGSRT
# PROTOCOL: FGFR3 V555L mobility shift assay (enzymatic assay)
# CONDITION LABEL: 40 μM ATP, 50 minutes at 30° C, Caliper EZ reader II
PROPERTY NAME: pIC50
The read-out pIC50 is expressed as -log10 of concentration in moles per litre.

Per the records, this compound ( CC(Nc1c(-c2nc3ccc(N4CCOCC4)cc3[nH]2)c(=O)[nH]c2cn(C)nc12)c1cscn1 (single isomer, unassigned) [Compound 41] ) has pIC50 equal to 7.29

----------
# TARGET OF ASSAY: human FGFR3 wild type enzyme (cytoplasmic domain) (Homo sapiens, UniProt P22607)
# Sequence (P22607 397-806 limits assumed): as the sequence (P22607 397-806 V555L limits assumed) above, with L159V counted along it
pIC50: −log10 of the molar value.
PROPERTY NAME: pIC50

CC(Nc1c(-c2nc3ccc(N4CCCCC4)cc3[nH]2)c(=O)[nH]c2cn(C)nc12)c1ncccn1 (single isomer, unassigned)	7.41
CCn1cc2[nH]c(=O)c(-c3nc4cnc(N5CCOCC5)cc4[nH]3)c(N[C@@H](C)c3ccccn3)c2n1	8.69
CCn1cc2[nH]c(=O)c(-c3nc4cc(C)c(N5CCOCC5)cc4[nH]3)c(N[C@@H](C)c3ncccn3)c2n1	8.75
CCn1cc2[nH]c(=O)c(-c3nc4ccc(N5CCOCC5)cc4[nH]3)c(N[C@@H](C)c3ncccn3)c2n1	9.05
CC(Nc1c(-c2nc3ccc(N4CCN(CC(F)(F)F)CC4)cc3[nH]2)c(=O)[nH]c2cn(C)nc12)c1ncccn1 (single isomer, unassigned)	9.20
COCC(Nc1c(-c2nc3c(F)cc(N4CCOCC4)cc3[nH]2)c(=O)[nH]c2cn(C)nc12)c1ncccn1 (single isomer, unassigned)	6.33

I: CC[C@H](Nc1c(-c2nc3ccc(N4CCOCC4)cc3[nH]2)c(=O)[nH]c2cn(CC)nc12)c1ncccn1 (single isomer, unassigned)
II: CCn1cc2[nH]c(=O)c(-c3nc4ccc(N5CCOCC5)cc4[nH]3)c(NC(C)c3cocn3)c2n1 (single isomer, unassigned) [Compound 4A]
Which record would sort first by descending pIC50, I or II ? Selection: enter the item's label. II
(II: 8.42, I: 7.05)
